assay: Micelle morphology by negative-stain TEM; format: physicochemical; conditions: negative-stain TEM (NanoW), 5 µM, 120 kV; categories by L/D
Quantity: Morphology

[
  {
    "Substance": "VIP(^SVIP)-KEKEKKKK-CONH2 [Palm2K-^SVIP-(KE)2K4]",
    "Quantity": "Morphology",
    "Value Reported": "Small/Medium Cylinders"
  },
  {
    "Substance": "VIP(^SVIP)-KEKEKEKE-CONH2 [Palm2K-VIP-(KE)4]",
    "Quantity": "Morphology",
    "Value Reported": "Small/Medium Cylinders"
  }
]

====

Documented Sphere diameter across a set of substances
test: Micelle morphology by negative-stain TEM; format: physicochemical; settings: negative-stain TEM, 5 µM

[
  {
    "Substance": "VIP(^SVIP)-KEKEKEKE-CONH2 [Palm2K-^SVIP-(KE)4]",
    "Sphere diameter": "10 - 15 nm"
  },
  {
    "Substance": "VIP(^SVIP)-KEKEEEEE-CONH2 [Palm2K-^SVIP-(KE)2E4]",
    "Sphere diameter": "10 - 20 nm"
  },
  {
    "Substance": "VIP(^SVIP)-KEKEKKKK-CONH2 [Palm2K-VIP-(KE)2K4]",
    "Sphere diameter": "10 - 15 nm"
  },
  {
    "Substance": "VIP(^SVIP)-KEKEEEEE-CONH2 [Palm2K-VIP-(KE)2E4]",
    "Sphere diameter": "10 - 20 nm"
  }
]
